The reported numbers originate from ChEMBL document CHEMBL1201862.

Below is a list of entries, each paired with its recorded GI50 value.
# Test system: TK-10
# EXPERIMENT: NCI tumour cell line growth inhibition, 48 h
Calls of active or inactive are those of the source. Rule as the data show it: active = GI50 up to about 1.1 µM and inactive = higher.

{"COMPOUND": "c1ccc(CN2CCc3[nH]c4ccccc4c3C2)cc1", "MEASURED_VALUE": "23.9 µM (inactive)"}
{"COMPOUND": "Cc1ccc(S(=O)(=O)[C@@H](Cl)[C@H]2N=C(Cl)NN=C2c2ccccc2)cc1", "MEASURED_VALUE": "41.8 µM (inactive)"}
{"COMPOUND": "CCOC(=O)/C(=C/c1ccccc1Br)P(=O)(OCC)OCC", "MEASURED_VALUE": "3.23 µM (inactive)"}

Problem: Input COc1cccc(NC(=O)c2c(SC)c(C#N)c(=O)n(N)c2N)c1 , output reported GI50.
Solution: > 100 µM (inactive)

Problem: Input CC(NCc1c(O)ccc2c(-c3ccccc3)cc(=O)oc12)C(=O)O (stereo unspecified) , output reported GI50.
Solution: > 100 µM (inactive)

Problem: Input COc1ccc2[nH]c(Cl)c(/C=C3/C(=O)N(c4ccccc4)c4ccccc43)c2c1 , output reported GI50.
Solution: 10.8 µM (inactive)

Problem: Input CCC[C@H](C)C[C@H](C)C[C@H](C)/C=C(\C)[C@@H](O)[C@@H](C)C(=O)CC , output reported GI50.
Solution: 23.2 µM (inactive)

====

# Test system: UACC-257
# EXPERIMENT: NCI tumour cell line growth inhibition, 48 h
The source made the active and inactive calls. Cut-off read from the data, not from the text of the source: active = GI50 up to about 1.1 µM and inactive = higher.
Hello, when you answer, please use one of the following outcomes: active, inactive

Problem: Recorded test outcome, item CCC(CO)COC(=O)/C=C/C(=O)OCC(CC)CO (centres undefined)
Solution: inactive

Problem: Recorded test outcome, item O=C(Nc1ccn(C2CCC(COC(c3ccccc3)(c3ccccc3)c3ccccc3)O2)c(=O)n1)c1ccccc1 (centres undefined)
Solution: inactive

====

// each record: one item and its GI50 for HCT-15
Number in µM, nothing else.

{"COMPOUND": "C[C@@H]1CC[C@]2(C(=O)O)CC[C@]3(C)C(=CC[C@@H]4[C@@]5(C)CC[C@H](O)C(C)(C)[C@@H]5CC[C@]43C)[C@@H]2[C@]1(C)O", "MEASUREMENT_NAME": "GI50", "MEASURED_VALUE": 10.6}
{"COMPOUND": "C=C1CC2(CC(c3ccccc3Cl)OC(c3ccccc3Cl)C2)OC1=O (configuration not stated)", "MEASUREMENT_NAME": "GI50", "MEASURED_VALUE": 2.56}
{"COMPOUND": "COC(=O)c1cc(=O)nc2sc3cccc(C)c3n12", "MEASUREMENT_NAME": "GI50", "MEASURED_VALUE": 43}
{"COMPOUND": "N=c1oc2ccc3ccccc3c2cc1-c1nc(O)c2ccccc2n1", "MEASUREMENT_NAME": "GI50", "MEASURED_VALUE": 19.9}
{"COMPOUND": "COc1ccc(/C=C/C(C(=O)O)C(=O)O)cc1", "MEASUREMENT_NAME": "GI50", "MEASURED_VALUE": 45.6}
{"COMPOUND": "COc1ccc2c(c1)c1c(n2CCN(C)C)-c2cccc(OC)c2CC1", "MEASUREMENT_NAME": "GI50", "MEASURED_VALUE": 15.3}
{"COMPOUND": "C1=CC(=P(c2ccccc2)(c2ccccc2)c2ccccc2)C=C1", "MEASUREMENT_NAME": "GI50", "MEASURED_VALUE": 29.7}

Problem: Enter measured GI50, system HCT-15, for the compound shown: Cc1cc(O)nc(NN2C(Cl)C(=O)C2c2ccc(O)cc2)n1 (configuration not stated)
Solution: 4.31

====

# Test system: SN12C
# EXPERIMENT: NCI tumour cell line growth inhibition, 48 h
Calls of active or inactive are those of the source. No stated cut-off is given here; in the data, active = GI50 up to about 1.1 µM and inactive = higher.
MEASUREMENT_NAME: GI50

Problem: Enter measured GI50, system SN12C, for the molecule shown: COc1ccc(NC(=O)CCc2cc(-c3ccc(O)c(OC)c3)nc(NC#N)n2)cc1
Solution: > 100 µM (inactive)

Problem: Enter measured GI50, system SN12C, for the molecule shown: Cc1cc(Br)ccc1/N=N/C1C(=O)ON=C1c1ccccc1 (configuration not stated)
Solution: > 100 µM (inactive)

Problem: Enter measured GI50, system SN12C, for the molecule shown: CCC(=N\NC(N)=S)/C(C)=N/O
Solution: > 100 µM (inactive)

Problem: Enter measured GI50, system SN12C, for the molecule shown: N#Cc1c(SCc2ccccc2)nc(-c2ccccc2)[nH]c1=S
Solution: 32.5 µM (inactive)

Problem: Enter measured GI50, system SN12C, for the molecule shown: O=[N+]([O-])C1CC/C(=N/O)c2nonc21 (configuration not stated)
Solution: > 10 µM (inactive)

====

# System: TK-10
# EXPERIMENT: NCI tumour cell line growth inhibition, 48 h
Calls of active or inactive are those of the source. Cut-off read from the data, not from the text of the source: active = GI50 up to about 1.1 µM and inactive = higher.
Hello, when you answer, please use one of the following outcomes: class 1 (active), class 0 (inactive)

{"COMPOUND": "OC(CCN1CCN(CCOC(c2ccc(F)cc2)c2ccc(F)cc2)CC1)c1ccccc1 (stereo not given)", "ASSIGNED_CLASS": "class 0"}
{"COMPOUND": "CN(CCCCN1CCCC1)CCCCN(C)C(=O)Cc1ccc(Cl)c(Cl)c1", "ASSIGNED_CLASS": "class 0"}
{"COMPOUND": "Cc1cc(NS(=O)(=O)c2ccc(NC(=O)c3cccc4c(Nc5ccc(S(N)(=O)=O)cc5)c5ccccc5nc34)cc2)no1", "ASSIGNED_CLASS": "class 0"}
{"COMPOUND": "COc1ccccc1N/C(=C\\C(=O)C(=O)NC12CC3CC(CC(C3)C1)C2)c1ccccc1", "ASSIGNED_CLASS": "class 0"}
{"COMPOUND": "O=C(NN1C(=O)C(Cl)C1c1ccccc1Cl)c1ccccc1O (stereo not given)", "ASSIGNED_CLASS": "class 0"}
{"COMPOUND": "CC(O)c1cc2c(s1)C(=O)c1scc(C(C)O)c1C2=O (stereo not given)", "ASSIGNED_CLASS": "class 0"}
{"COMPOUND": "CC1OC(OCC2COC(O)(Oc3c(-c4ccc(O)c(O)c4)oc4cc(O)cc(O)c4c3=O)C(O)C2O)C(O)C(O)C1O (stereo not given)", "ASSIGNED_CLASS": "class 0"}
{"COMPOUND": "C1=CC(=P(c2ccccc2)(c2ccccc2)c2ccccc2)C=C1", "ASSIGNED_CLASS": "class 0"}
{"COMPOUND": "OC1=C2c3ccccc3NC2Oc2cc(F)ccc21 (stereo not given)", "ASSIGNED_CLASS": "class 0"}
{"COMPOUND": "N#Cc1c(SCc2ccccc2)nc(-c2ccccc2)[nH]c1=S", "ASSIGNED_CLASS": "class 0"}

Problem: Recorded test outcome, item CCCCCNC(=O)c1cc2cc(CCl)ccc2oc1=O
Solution: class 0

Problem: Recorded test outcome, item O=C(O)Cn1nnc2c(=O)[nH][nH]c(=O)c21
Solution: class 0

Problem: Recorded test outcome, item O=C(CSCC(=O)N/N=C/c1cccc(OCc2ccccc2)c1)N/N=C/c1cccc(OCc2ccccc2)c1
Solution: class 0

Problem: Recorded test outcome, item O=C1c2ccccc2C(=O)c2c1nc1ccccc1c2-c1cncc(-c2c3c(nc4ccccc24)C(=O)c2ccccc2C3=O)c1
Solution: class 0

Problem: Recorded test outcome, item COc1cc2cc[n+](C)c(Cc3ccc(Oc4cc(Cc5c6cc(OC)c(OC)cc6cc[n+]5C)ccc4OC)cc3)c2cc1OC
Solution: class 0

Problem: Recorded test outcome, item CC(=O)O[C@@]12CO[C@@H]1C[C@H](O)[C@@]1(C)C(=O)[C@H](O)C3=C(C)[C@@H](OC(=O)[C@H](O)[C@@H](NC(=O)OC(C)(C)C)c4ccccc4)C[C@@](O)([C@@H](OC(=O)c4ccccc4)[C@H]21)C3(C)C
Solution: class 1

Problem: Recorded test outcome, item CC(=O)O[C@@H]1CC[C@@]2(C)C(=O)C34C[C@@]5(C)C([C@@H](C)CCCC(C)C)CCC5(C)[C@](O)(O3)C(=O)[C@H]4C2C1(C)C (stereo not given in full)
Solution: class 0

Problem: Recorded test outcome, item c1ccc(C2SCC3=Nc4ccccc4CN32)cc1 (stereo not given)
Solution: class 0

====

# Test system: Hs-578T
# EXPERIMENT: NCI tumour cell line growth inhibition, 48 h
Active and inactive are the calls of the source. Cut-off read from the data, not from the text of the source: active = GI50 up to about 1.1 µM and inactive = higher.
Hello, when you answer, please use one of the following outcomes: active, inactive

{"COMPOUND_STRUCTURE": "COc1ccc2c(c1)c1c(n2CCN(C)C)-c2cccc(OC)c2CC1", "ASSIGNED_CLASS": "inactive"}
{"COMPOUND_STRUCTURE": "CC(=O)O[C@@]12CO[C@@H]1C[C@H](O)[C@@]1(C)C(=O)[C@H](O)C3=C(C)[C@@H](OC(=O)[C@H](O)[C@@H](NC(=O)OC(C)(C)C)c4ccccc4)C[C@@](O)([C@@H](OC(=O)c4ccccc4)[C@H]21)C3(C)C", "ASSIGNED_CLASS": "active"}
{"COMPOUND_STRUCTURE": "Cc1cc(O)c(C(C)C)cc1NC(=O)Nc1cccc2ccccc12", "ASSIGNED_CLASS": "inactive"}
{"COMPOUND_STRUCTURE": "O=[N+]([O-])C(C(Cl)=C(Cl)Cl)=C(N1CCCCC1)N1CCCCC1", "ASSIGNED_CLASS": "inactive"}
{"COMPOUND_STRUCTURE": "NNC(=S)N1CCN(C(=S)NN)CC1", "ASSIGNED_CLASS": "inactive"}

Proceed to the following item.
Problem: Recorded test outcome, item CC(C)C(=O)C(C)(C)CCc1ccccn1
Solution: inactive
